study target: IgE antibodies of the individual allergic patient serum II/17
protocol text: EAST inhibition, individual serum II/17
Below, each entry is listed alongside its reported allergenic potency (Prel) at 25% inhibition (relative to native Phl p 5b).
Would you mind answering with just the numeric figure?

rPhl p 5b point mutant PM1 (N32D, D49L, K50A) (protein) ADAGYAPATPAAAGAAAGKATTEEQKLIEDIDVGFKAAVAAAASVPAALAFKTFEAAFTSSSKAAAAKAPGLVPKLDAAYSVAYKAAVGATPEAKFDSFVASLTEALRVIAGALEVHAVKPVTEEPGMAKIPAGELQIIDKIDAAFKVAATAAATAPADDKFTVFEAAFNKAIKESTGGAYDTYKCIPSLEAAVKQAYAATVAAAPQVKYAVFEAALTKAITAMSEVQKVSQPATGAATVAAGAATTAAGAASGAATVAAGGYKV; 0.336

Input: Tell me measured allergenic potency (Prel) at 25% inhibition (relative to native Phl p 5b) for rPhl p 5b deletion mutant DM2 (deletion F51-G178, D49L, K50A) (protein) ADAGYAPATPAAAGAAAGKATTEEQKLIEDINVGFKAAVAAAASVPAALAGAYDTYKCIPSLEAAVKQAYAATVAAAPQVKYAVFEAALTKAITAMSEVQKVSQPATGAATVAAGAATTAAGAASGAATVAAGGYKV please.
Output: 2.9e-12

Input: Look up and state reported allergenic potency (Prel) at 25% inhibition (relative to native Phl p 5b) for rPhl p 5b deletion mutant DM3 (deletion A154-T177, A220T) (protein) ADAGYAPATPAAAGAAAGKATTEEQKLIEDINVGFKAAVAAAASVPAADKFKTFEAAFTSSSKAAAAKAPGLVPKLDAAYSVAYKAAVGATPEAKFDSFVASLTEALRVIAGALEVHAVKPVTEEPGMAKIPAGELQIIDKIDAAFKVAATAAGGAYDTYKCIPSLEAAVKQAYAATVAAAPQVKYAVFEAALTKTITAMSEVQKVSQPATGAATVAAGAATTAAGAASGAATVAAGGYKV
Output: 0.038
